Consider the following compounds and their measured AUC readings.
Experiment: Compound plasma exposure in cyno DRF study
Assay type: in vivo
Settings: cynomolgus monkey, po, 10 mg/kg, 10 mg/kg PO, 1 day of dosing
Dear colleague, please return just the value in µM·h, with no unit written.

# compound, AUC (µM·h)
rows = [
    ("CN1CCN([C@@H]2CCCN(c3cnc(C(N)=O)c(Nc4ccc(C5CCN(C[C@H]6CCN(c7ccc8c(c7)C(=O)N(C7CCC(=O)NC7=O)C8=O)C6)CC5)cc4)n3)C2)C1=O (stereo partly drawn)", 0.148),
    ("NC(=O)c1ncc(N2CCCCC2)nc1Nc1ccc(C2CCN(C[C@@H]3CCN(c4ccc5c(c4)C(=O)N(C4CCC(=O)NC4=O)C5=O)C3)CC2)cc1 (stereo partly drawn)", 0.386),
]

Please examine the following record next.
### Prompt Using the record for CN1CCN([C@H]2CCCN(c3cnc(C(N)=O)c(Nc4ccc(C5CCN(CC6CCN(c7ccc(C(=O)NC8CCC(=O)NC8=O)nc7)CC6)CC5)cc4)n3)C2)C1=O (stereo partly drawn) , report its AUC.
### Response 0.172

The origin of these recorded values is patent US12600732B2.
